# Experimental Target: PLA2G7 (Mus musculus, UniProt Q60963)
# Construct: Proteomes (mouse brain membrane fraction or cell lysates); from tissue; host or cells: mouse brain membrane fraction (or cell lysates, not specified)
# Sequence (Q60963 22-440): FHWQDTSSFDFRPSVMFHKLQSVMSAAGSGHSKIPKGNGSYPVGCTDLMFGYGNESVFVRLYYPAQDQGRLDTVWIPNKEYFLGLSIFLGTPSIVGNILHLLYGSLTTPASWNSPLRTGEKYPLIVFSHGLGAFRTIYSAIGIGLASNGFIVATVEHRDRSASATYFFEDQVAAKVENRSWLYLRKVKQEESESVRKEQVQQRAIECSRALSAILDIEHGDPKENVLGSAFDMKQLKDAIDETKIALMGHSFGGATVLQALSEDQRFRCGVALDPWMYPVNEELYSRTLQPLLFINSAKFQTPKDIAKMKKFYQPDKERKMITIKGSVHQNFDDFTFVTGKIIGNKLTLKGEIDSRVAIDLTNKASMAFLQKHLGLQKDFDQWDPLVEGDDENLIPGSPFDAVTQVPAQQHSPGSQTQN
# Measurement Description: In vitro competitive activity-based protein profiling (gel-based, FP-Rh or HT-01 probe)
# Assay type: biochemical
# Stated Conditions: 10 μM inhibitor; read-out: % Inhibition at 10 μM, D = PLA2G7
# Experimental: In Vitro Competitive Activity-Based Protein Profiling. Proteomes (mouse brain membrane fraction or cell lysates) (50 μL, 1.0 mg/mL total protein concentration) were preincubated with varying concentrations of inhibitors at 37° C. […] Following gel imaging, serine hydrolase activity was determined by measuring fluorescent intensity of gel bands corresponding to MAGL, ABHD6, FAAH, and PLA2G7 using ImageJ 1.43u software.
Measured Property: inhibition at 10 µM

structure_smiles=O=C(N1CCN(Cc2ccc3c(c2)OCO3)CC1)n1cc(-c2ccccc2)cn1 result="> 75%"
structure_smiles=O=C(N1CCN(Cc2ccncn2)CC1)n1cc(-c2ccccc2)cn1 result="> 75%"
structure_smiles=Cc1cc(-c2ccccc2)ccc1CN1CCN(C(=O)n2cc(C#N)cn2)CC1 result="> 75%"
structure_smiles=O=C(N1CCN(Cc2ccc(N3CCCC3)cc2)CC1)n1cc(Cl)cn1 result="> 75%"

Lab request: please report inhibition at 10 µM under test system PLA2G7 (Mus musculus, UniProt Q60963) for CCN(Cc1cccc(Cl)c1)C(=O)n1cc(Cl)cn1
< 25%

And what about the compound O=C(NCCCCc1ccccc1)n1cccn1 ?
< 25%

And what about the compound CN(CCN(C)C(=O)n1cc(C(F)(F)F)cn1)C(=O)c1ccccc1 ?
> 75%

And what about the compound O=C(N1CCN(Cc2ccc(C(F)(F)F)cc2N2CCCC2)CC1)n1cc(-c2ccccc2C(F)(F)F)cn1 ?
> 75%

And what about the compound O=C(N1CCN(Cc2ccc(-c3ccccc3)cc2)CC1)n1cccn1 ?
< 25%

====

# Experimental Target: FAAH (Mus musculus, UniProt O08914)
# Construct: Proteomes (mouse brain membrane fraction or cell lysates); from tissue; host or cells: mouse brain membrane fraction (or cell lysates, not specified)
# Sequence (O08914 whole entry): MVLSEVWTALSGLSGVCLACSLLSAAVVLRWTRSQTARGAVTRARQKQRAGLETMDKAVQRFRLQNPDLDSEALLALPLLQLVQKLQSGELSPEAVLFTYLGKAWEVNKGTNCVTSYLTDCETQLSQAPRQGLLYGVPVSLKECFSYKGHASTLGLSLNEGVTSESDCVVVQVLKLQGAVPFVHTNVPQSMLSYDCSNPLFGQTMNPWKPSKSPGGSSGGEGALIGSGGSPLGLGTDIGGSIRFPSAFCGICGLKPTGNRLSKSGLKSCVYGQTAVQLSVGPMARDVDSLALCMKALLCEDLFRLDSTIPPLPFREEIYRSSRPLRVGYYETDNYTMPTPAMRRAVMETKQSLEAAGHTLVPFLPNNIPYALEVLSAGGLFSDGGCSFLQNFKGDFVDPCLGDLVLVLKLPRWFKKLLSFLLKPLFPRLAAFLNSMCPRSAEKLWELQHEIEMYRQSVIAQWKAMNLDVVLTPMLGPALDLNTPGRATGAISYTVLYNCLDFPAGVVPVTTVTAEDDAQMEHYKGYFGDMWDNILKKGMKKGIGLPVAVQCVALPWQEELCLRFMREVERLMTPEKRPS
# Measurement Description: In vitro competitive activity-based protein profiling (gel-based, FP-Rh or HT-01 probe)
# Assay type: biochemical
# Stated Conditions: 10 μM inhibitor; read-out: % Inhibition at 10 μM, B = FAAH
# Protocol: In Vitro Competitive Activity-Based Protein Profiling. Proteomes (mouse brain membrane fraction or cell lysates) (50 μL, 1.0 mg/mL total protein concentration) were preincubated with varying concentrations of inhibitors at 37° C. […] Following gel imaging, serine hydrolase activity was determined by measuring fluorescent intensity of gel bands corresponding to MAGL, ABHD6, FAAH, and PLA2G7 using ImageJ 1.43u software.
Measured Property: inhibition at 10 µM

structure_smiles=Cc1cnn(C(=O)N(C)CCN(C)C(=O)OC(C)(C)C)c1 measured_property="inhibition at 10 µM" result="25 to 75%"

Lab request: please report inhibition at 10 µM under test system FAAH (Mus musculus, UniProt O08914) for N#Cc1cnn(C(=O)N2CCN(c3ccccc3)CC2)c1
> 75%

And what about the compound CCN(Cc1cccc(OC)c1)C(=O)n1cc(Cl)cn1 ?
> 75%

And what about the compound O=C(c1cnn(C(=O)N2CCN(Cc3ccccn3)CC2)c1)N1CCOCC1 ?
< 25%

And what about the compound N#Cc1cnn(C(=O)N2CCN(Cc3ccc(-c4ccccc4)cc3Cl)CC2)c1 ?
> 75%

And what about the compound Cc1cnn(C(=O)N2CCN(S(C)(=O)=O)CC2)c1 ?
< 25%

And what about the compound O=C(c1cnn(C(=O)N2CCN(Cc3ccncn3)CC2)c1)N1CCOCC1 ?
< 25%

And what about the compound O=C(N1CCOCC1)n1cc(Cl)cn1 ?
> 75%
